Target: IKBKB (human) (UniProt O14920)
Sequence (O14920 whole entry, looked up): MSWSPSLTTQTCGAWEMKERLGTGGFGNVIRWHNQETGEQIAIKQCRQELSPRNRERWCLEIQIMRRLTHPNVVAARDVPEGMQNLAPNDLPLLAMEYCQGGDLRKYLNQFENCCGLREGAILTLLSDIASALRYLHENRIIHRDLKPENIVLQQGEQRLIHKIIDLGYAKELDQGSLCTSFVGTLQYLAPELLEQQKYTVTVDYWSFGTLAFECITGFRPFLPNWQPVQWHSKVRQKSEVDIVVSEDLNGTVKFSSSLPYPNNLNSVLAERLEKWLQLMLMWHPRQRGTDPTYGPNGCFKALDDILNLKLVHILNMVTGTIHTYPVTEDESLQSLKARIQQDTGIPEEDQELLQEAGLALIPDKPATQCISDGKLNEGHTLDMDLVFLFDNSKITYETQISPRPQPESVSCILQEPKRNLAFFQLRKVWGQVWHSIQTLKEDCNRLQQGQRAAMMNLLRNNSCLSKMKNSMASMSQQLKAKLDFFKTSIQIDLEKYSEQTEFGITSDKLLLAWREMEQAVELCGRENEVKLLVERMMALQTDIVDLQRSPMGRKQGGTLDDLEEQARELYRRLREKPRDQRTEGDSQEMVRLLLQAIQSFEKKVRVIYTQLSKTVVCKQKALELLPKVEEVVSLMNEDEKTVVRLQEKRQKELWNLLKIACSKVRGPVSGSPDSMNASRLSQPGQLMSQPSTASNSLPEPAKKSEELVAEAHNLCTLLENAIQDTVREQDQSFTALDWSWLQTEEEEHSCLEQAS
Assay: radiometric filter-binding kinase assay
Conditions: compound 10.0 µM
Collected residual activity values appear next to each entry.
State just the number; it will be interpreted in %.

COMPOUND | TEST_TARGET | U | READOUT_NUMBER
NC(=O)c1ccc(-c2ccc(Oc3cncc4sc(-c5nn[nH]n5)cc34)cc2)cc1 | IKBKB (human) (UniProt O14920) | % | 64
NC(=O)Nc1ccc2c(c1)/C(=C/c1cc(-c3cccnc3)c[nH]1)C(=O)N2 | IKBKB (human) (UniProt O14920) | % | 26
NC(=O)c1c(NC(=O)C2CC2)sc2c1CCCC2 | IKBKB (human) (UniProt O14920) | % | 93
O=C(Nc1ccccc1-c1cn2c(CN3CCNCC3)csc2n1)c1cnc2ccccc2n1 | IKBKB (human) (UniProt O14920) | % | 84
CC(C)(C#N)c1ccc(N2C(=O)OCc3cnc4ccc(-c5cnc6ccccc6c5)cc4c32)cc1 | IKBKB (human) (UniProt O14920) | % | 87

Exam item: I am curious: what residual activity value has been reported for CN1C(=O)[C@@H](Cc2c[nH]c3ccccc23)NC1=S ?
Marked response: 96

Exam item: I am curious: what residual activity value has been reported for O=c1c(O)c(-c2ccc(O)c(O)c2)oc2cc(O)c(O)c(O)c12 ?
Marked response: 16

Exam item: I am curious: what residual activity value has been reported for C[C@H]1CCCC(=O)CCC/C=C/c2cc(O)cc(O)c2C(=O)O1 ?
Marked response: 78

Exam item: I am curious: what residual activity value has been reported for C=CC(=O)N1CCC[C@@H](n2nc(-c3ccc(Oc4ccccc4)cc3)c3c(N)ncnc32)C1 ?
Marked response: 90

Exam item: I am curious: what residual activity value has been reported for NS(=O)(=O)OC[C@@H]1C[C@@H](n2ccc3c(N[C@H]4CCc5ccccc54)ncnc32)C[C@@H]1O ?
Marked response: 96

Exam item: I am curious: what residual activity value has been reported for O=S(=O)(c1ccc(F)c2nonc12)N1CCN(c2ncc(C(F)(F)F)cc2Cl)CC1 ?
Marked response: 89

Exam item: I am curious: what residual activity value has been reported for FC(F)(F)c1ccc(-c2ccc(Oc3cncc4sc(-c5nn[nH]n5)cc34)cc2)cc1 ?
Marked response: 56

* * *

Target: EPHA4 (human)
Assay: radiometric filter-binding kinase assay
Conditions: compound 10.0 µM
Collected residual activity values appear next to each entry.
State just the number; it will be interpreted in %.

Completed entries (count: 5):
COMPOUND | TEST_TARGET | residual activity, %
CC(C)(C#N)c1ccc(N2C(=O)OCc3cnc4ccc(-c5cnc6ccccc6c5)cc4c32)cc1 | EPHA4 (human) | 89
Cc1ccc2c(c1)C(=O)[C@@]1(O)CCN(c3ccccc3)C1=N2 | EPHA4 (human) | 108
O=C(NOCC(O)CO)c1ccc(F)c(F)c1Nc1ccc(I)cc1Cl (stereo unspecified) | EPHA4 (human) | 100
NC(=O)c1ccc(-c2ccc(Oc3cncc4sc(-c5nn[nH]n5)cc34)cc2)cc1 | EPHA4 (human) | 112
CC(C)C[C@H](NC(=O)CNC(=O)c1cc(Cl)ccc1Cl)B1OC(=O)CC(CC(=O)O)(C(=O)O)O1 (stereo partly specified) | EPHA4 (human) | 69

Exam item: I am curious: what residual activity value has been reported for C=CC(=O)N1CCC[C@@H](n2nc(-c3ccc(Oc4ccccc4)cc3)c3c(N)ncnc32)C1 ?
Marked response: 45

Exam item: I am curious: what residual activity value has been reported for NC(=O)c1cc2c(-c3cccc(-c4ccccc4)c3)cnc(N)c2s1 ?
Marked response: 71

Exam item: I am curious: what residual activity value has been reported for CCCC(CCC)C(=O)O ?
Marked response: 117

Exam item: I am curious: what residual activity value has been reported for COC(=O)/C=C/C(=O)OC ?
Marked response: 98

Exam item: I am curious: what residual activity value has been reported for O=C(NOC[C@H](O)CO)c1ccc(F)c(F)c1Nc1ccc(I)cc1Cl ?
Marked response: 89

Exam item: I am curious: what residual activity value has been reported for Cc1nc(-c2ccc(OCC(C)C)c(C#N)c2)sc1C(=O)O ?
Marked response: 107

Data origin: the kinase profiling compilation of Christmann-Franck et al. (2016)
